Test: Tissue/plasma concentrations after intra-tracheal instillation (HPLC)
Format: in vivo, Sprague-Dawley rats
Conditions: Sprague-Dawley, right lung, other: intra-tracheal instillation; rat, 100 μg intra-tracheal instillation, 24 hours; read-out: Right Lung concentration

compound	concentration at 24 hours / ng/g
CC1=C(/C=C/C(C)=C/C=C/C(C)=C/C(=O)O)C(C)(C)CCC1 [all-trans retinoic acid]	21

* * *

Assay: physchem
Conditions: HCFC-123 without alkylamine, organic solvent or mixture

compound	solubility
CC1=C(/C=C/C(C)=C/C=C/C(C)=C/C(=O)O)C(C)(C)CCC1 [all-trans retinoic acid]	~2000 µg/mL

* * *

Assay: Tissue/plasma concentrations after intra-tracheal instillation (HPLC)
Assay type: in vivo, Sprague-Dawley rats
Conditions: Sprague-Dawley, trachea, other: intra-tracheal instillation; rat, 100 μg intra-tracheal instillation, 1 hour; read-out: Trachea concentration

compound	concentration at 1 hour / ng/g
CC1=C(/C=C/C(C)=C/C=C/C(C)=C/C(=O)O)C(C)(C)CCC1 [all-trans retinoic acid]	2860

* * *

Assay: in vivo
Details: male, Sprague-Dawley, rat, 250 ug
endpoint.name: AUC (ng·h/mL)

compound	endpoint.name	quantity.unit	result.number
CC1=C(/C=C/C(C)=C/C=C/C(C)=C/C(=O)O)C(C)(C)CCC1 [all-trans retinoic acid]	AUC	ng·h/mL	191

* * *

Experiment: Tissue/plasma concentrations after intra-tracheal instillation (HPLC)
Assay type: in vivo, Sprague-Dawley rats
Conditions: Sprague-Dawley, left lung, other: intra-tracheal instillation; rat, 100 μg intra-tracheal instillation, 24 hours; read-out: Left Lung concentration

molecule	concentration at 24 hours, ng/g
CC1=C(/C=C/C(C)=C/C=C/C(C)=C/C(=O)O)C(C)(C)CCC1 [all-trans retinoic acid]	22

* * *

Experiment: in vivo
Conditions: male, Sprague-Dawley, rat, inhaled or intranasal, 147 ug, Plasma T½
endpoint.name: half-life (h)

molecule	endpoint.name	result.number
CC1=C(/C=C/C(C)=C/C=C/C(C)=C/C(=O)O)C(C)(C)CCC1 [all-trans retinoic acid]	half-life	3

* * *

Assay: in vivo
Settings: male, Sprague-Dawley, rat, 250 ug, Plasma T½

compound	quantity.unit	half-life
CC1=C(/C=C/C(C)=C/C=C/C(C)=C/C(=O)O)C(C)(C)CCC1 [all-trans retinoic acid]	h	1.9

* * *

Experiment: Tissue/plasma concentrations after intra-tracheal instillation (HPLC)
Format: in vivo, Sprague-Dawley rats
Conditions: Sprague-Dawley, liver, other: intra-tracheal instillation; rat, 100 μg intra-tracheal instillation, 6 hours; read-out: Liver concentration

compound	concentration at 6 hours
CC1=C(/C=C/C(C)=C/C=C/C(C)=C/C(=O)O)C(C)(C)CCC1 [all-trans retinoic acid]	24 ng/g

* * *

Assay: in vivo
Conditions: male, Sprague-Dawley, rat
endpoint.name: concentration at 1 hour (µg/mL)

molecule	endpoint.name	result.number
CC1=C(/C=C/C(C)=C/C=C/C(C)=C/C(=O)O)C(C)(C)CCC1 [all-trans retinoic acid]	concentration at 1 hour	0.068

* * *

Test: Tissue/plasma concentrations after intra-tracheal instillation (HPLC)
Type: in vivo, Sprague-Dawley rats
Details: Sprague-Dawley, plasma, other: intra-tracheal instillation; rat, 100 μg intra-tracheal instillation, 1 hour; read-out: Plasma concentration

compound	concentration at 1 hour (ng/mL)
CC1=C(/C=C/C(C)=C/C=C/C(C)=C/C(=O)O)C(C)(C)CCC1 [all-trans retinoic acid]	123

* * *

Assay: physchem
Conditions: ethyl acetate, organic solvent or mixture, thermodynamic from solid
endpoint.name: solubility

compound	endpoint.name	result
CC1=C(/C=C/C(C)=C/C=C/C(C)=C/C(=O)O)C(C)(C)CCC1 [all-trans retinoic acid]	solubility	10000 µg/mL

Where these numbers come from: patent US6515022B2
